Origin of values: patent US20260209345A1

STUDY SYSTEM: T1, recombinant LILRB2 ECD (human, UniProt Q8N423 22-460)
T1 construct: also called biotinylated LILRB2 ECD
T1 sequence (Q8N423 22-460 limits assumed): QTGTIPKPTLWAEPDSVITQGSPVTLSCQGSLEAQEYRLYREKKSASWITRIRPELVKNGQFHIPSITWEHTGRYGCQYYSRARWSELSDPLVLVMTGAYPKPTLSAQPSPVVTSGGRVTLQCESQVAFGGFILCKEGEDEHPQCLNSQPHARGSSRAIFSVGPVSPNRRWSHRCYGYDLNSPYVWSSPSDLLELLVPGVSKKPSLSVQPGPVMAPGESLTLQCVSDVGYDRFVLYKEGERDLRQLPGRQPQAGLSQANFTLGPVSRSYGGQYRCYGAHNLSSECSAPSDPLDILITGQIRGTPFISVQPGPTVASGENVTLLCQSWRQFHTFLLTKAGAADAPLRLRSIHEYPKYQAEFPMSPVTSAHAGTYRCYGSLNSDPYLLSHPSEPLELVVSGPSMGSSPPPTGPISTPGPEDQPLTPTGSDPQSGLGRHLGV
TEST: BLI, IgG on AHC sensor, ECD in solution
OUTCOME MEASURE: Kd (nM)
Hi! Could you send only the number? It should be in nM, unit omitted.

{"BINDER": "A-035 (antibody, V domains shown, tested as IgG) VH: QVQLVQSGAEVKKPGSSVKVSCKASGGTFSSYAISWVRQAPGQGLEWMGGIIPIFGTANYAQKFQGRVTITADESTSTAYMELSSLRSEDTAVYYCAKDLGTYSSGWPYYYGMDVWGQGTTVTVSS VL: SYELTQPPSVSVSPGQTASITCSGDKLGDKYASWYQQKPGQSPVLVIYQDSKRPSGIPERFSGSNSGNTATLTISGTQAEDEADYYCQLSHGTLLVFGGGTKLTVL", "Kd, nM": 30.8}

Input: I am curious: what Kd value has been reported for A-022 (antibody, V domains shown, tested as IgG) VH: QVQLVQSGAEVKKPGSSVKVSCKASGGTFGGSAISWVRQAPGQGLEWMGGIVLAYSTSVYAQKFQGRVTITADESTSTAYMELSSLRSEDTAVYYCAKGPPVGSSSWYTDWYFDLWGRGTLVTVSS VL: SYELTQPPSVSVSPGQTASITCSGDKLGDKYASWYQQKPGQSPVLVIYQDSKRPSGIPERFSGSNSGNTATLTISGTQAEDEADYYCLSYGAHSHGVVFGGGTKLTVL ?
Output: 4.4
